Cited source for all entries: patent US20060257938A1

Recorded DR/DR SA values for a group of molecules are listed next.
Protocol Summary: Probe fluorescence ratio response to stearic acid relative to ADIFAB2
Assay type: binding
Study Conditions: response relative to ADIFAB2
// no unit, no text: just the number

Take a look at these entries with their results.
{"Molecule": "72T 74V (protein, listed as Rattus norvegicus, PEPTIDE (1)...(131) wild-type rat intestinal fatty acid binding protein) AFDGTWKVDRNENYEKFMEKMGINVVKRKLGAHDNLKLTITQEGNKFTVKESSNFRNIDVVFELGVDFAYSTAVGTELTGTWTMEGNKLVGKFKRVDNGKELIAVREISGNELIQTYTYEGVEAKRIFKKE", "Reported Measurement": 1.781}
{"Molecule": "14L 31W 117V 72A (protein, listed as Rattus norvegicus, PEPTIDE (1)...(131) wild-type rat intestinal fatty acid binding protein) AFDGTWKVDRNENLEKFMEKMGINVVKRKLWAHDNLKLTITQEGNKFTVKESSNFRNIDVVFELGVDFAYSAADGTELTGTWTMEGNKLVGKFKRVDNGKELIAVREISGNELIQTVTYEGVEAKRIFKKE", "Reported Measurement": 0.742}

Note: attention shifts to another entry.
Request: Supply recorded DR/DR SA for 18L 73L 72A (protein, listed as Rattus norvegicus, PEPTIDE (1)...(131) wild-type rat intestinal fatty acid binding protein) AFDGTWKVDRNENYEKFLEKMGINVVKRKLGAHDNLKLTITQEGNKFTVKESSNFRNIDVVFELGVDFAYSALDGTELTGTWTMEGNKLVGKFKRVDNGKELIAVREISGNELIQTYTYEGVEAKRIFKKE here.
Response: 0.254
